Data origin: patent EP0324390A2

Listed below: MIC values for each entry.
# Tested on: Staph. aureus (285)
# Assay Name: Agar dilution test according to Lorian (antibacterial activity)
# Assay type: cell-based
# Condition Label: Müller Hinton Agar, 16 to 18 h at 37 C; lowest concentration fully preventing growth
Quantity Name: MIC

>>> result("COC1CC(CC2CCC(C)C(C(C)C(=O)O)O2)OC2(OC(C)(C3CCC(C)(C4OC(C5OC(O)(COC(=O)Nc6ccc(Cl)cc6)C(C)CC5C)CC4C)O3)CC2C)C1C (stereo not shown)")
"100,0 µg/ml"
>>> result("COC1CC(CC2CCC(C)C(C(C)C(=O)O)O2)OC2(OC(C)(C3CCC(C)(C4OC(C5OC(O)(COC(=O)CCOc6ccccc6)C(C)CC5C)CC4C)O3)CC2C)C1C (stereo not shown)")
"1,56 µg/ml"
>>> result("CCOC1(CO)OC(C2CC(C)C(C3(C)CCC(C4(C)CC(C)C5(OC(CC6CCC(C)C(C(C)C(=O)O)O6)CC(OC)C5C)O4)O3)O2)C(C)CC1C (stereo not shown)")
"1,56 µg/ml"
>>> result("COC1CC(CC2CCC(C)C(C(C)C(=O)O)O2)OC2(OC(C)(C3CCC(C)(C4OC(C5OC(O)(COC(=O)COc6ccccc6)C(C)CC5C)CC4C)O3)CC2C)C1C (stereo not shown)")
"0,391 µg/ml"
>>> result("COC1CC(CC2CCC(C)C(C(C)C(=O)O)O2)OC2(OC(C)(C3CCC(C)(C4OC(C5OC(O)(COC(=O)Cc6ccccc6)C(C)CC5C)CC4C)O3)CC2C)C1C (stereo not shown)")
"0,391 µg/ml"
>>> result("COC1CC(CC2CCC(C)C(C(C)C(=O)[O-])O2)OC2(OC(C)(C3CCC(C)(C4OC(C5OC(O)(CO)C(C)CC5C)CC4C)O3)CC2C)C1C.[K+] (stereo not shown)")
"0,025 µg/ml"
>>> result("COC1CC(CC2CCC(C)C(C(C)C(=O)O)O2)OC2(OC(C)(C3CCC(C)(C4OC(C5OC(O)(COS(=O)(=O)O)C(C)CC5C)CC4C)O3)CC2C)C1C (stereo not shown)")
"1,56 µg/ml"
